Can you tell me inhibition in vivo at 50 mg/kg for the items I'm about to list?
system: Triton WR-1339-induced hyperlipidemia in rat; assay: antilipotropic effect in Triton WR-1339-induced hyperlipidemia in rat; assay type: in vivo, Wistar-strain male rats; settings: 48 hours after Triton WR-1339 (400 mg/kg, tail vein), 50 mg/kg oral, vs control, read-out: lowering ratio of serum triglycerides, 48 hours after Triton WR-1339
One number for each entry, in %.

# batch size: 3; output inhibition in vivo at 50 mg/kg per entry
1. CCOP(=O)(Cc1ccc(C(=O)N(Cc2ccccc2)c2ccc([N+](=O)[O-])cc2)cc1)OCC
2. CCOP(=O)(Cc1ccc(C(=O)N(Cc2ccc(Cl)cc2)c2ccc(Cl)cc2)cc1)OCC
3. CCC(C)(Oc1ccc(C2(c3ccc(OC(C)(CC)C(=O)O)cc3)CCCCC2)cc1)C(=O)O (stereo not drawn) [Clinofibrate, reference compound]

Result:
1. 68.7
2. 89.1
3. 1.1

# batch size: 3; output inhibition in vivo at 50 mg/kg per entry
1. CCOP(=O)(Cc1ccc(C(=O)Nc2ccc(C)cc2)cc1)OCC
2. CC(C)OP(=O)(Cc1ccc(C(=O)NCCc2ccccc2)cc1)OC(C)C
3. CCOP(=O)(Cc1ccc(C(=O)Nc2ccc(Cl)c(C(F)(F)F)c2)cc1)OCC

Result:
1: 28.1; 2: 56.8; 3: 68.4

# batch size: 6; output inhibition in vivo at 50 mg/kg per entry
1. CCOP(=O)(Cc1ccc(C(=O)Nc2ccc(Br)cc2)cc1)OCC
2. CCOP(=O)(Cc1ccc(C(=O)Nc2ccc(C#N)cc2)cc1)OCC
3. CCOP(=O)(Cc1ccc(C(=O)Nc2ccc(C(F)(F)F)cc2)cc1)OCC
4. CCOP(=O)(Cc1ccc(C(=O)Nc2ccc(F)cc2)cc1)OCC
5. CCOP(=O)(Cc1ccc(C(=O)N(c2ccc(Cl)cc2)C2CCCC2)cc1)OCC
6. CCOP(=O)(Cc1ccc(C(=O)Nc2ccc(OC)cc2)cc1)OCC

Result:
92.5
94.7
95.4
90.5
55.8
27.6

From: patent US5081112A
